The origin of these recorded values is ChEMBL document CHEMBL4261543.

# tgt: Serine/threonine-protein kinase B-raf (Homo sapiens, UniProt P15056, V600E)
# Sequence (P15056 2-766 V600E limits assumed): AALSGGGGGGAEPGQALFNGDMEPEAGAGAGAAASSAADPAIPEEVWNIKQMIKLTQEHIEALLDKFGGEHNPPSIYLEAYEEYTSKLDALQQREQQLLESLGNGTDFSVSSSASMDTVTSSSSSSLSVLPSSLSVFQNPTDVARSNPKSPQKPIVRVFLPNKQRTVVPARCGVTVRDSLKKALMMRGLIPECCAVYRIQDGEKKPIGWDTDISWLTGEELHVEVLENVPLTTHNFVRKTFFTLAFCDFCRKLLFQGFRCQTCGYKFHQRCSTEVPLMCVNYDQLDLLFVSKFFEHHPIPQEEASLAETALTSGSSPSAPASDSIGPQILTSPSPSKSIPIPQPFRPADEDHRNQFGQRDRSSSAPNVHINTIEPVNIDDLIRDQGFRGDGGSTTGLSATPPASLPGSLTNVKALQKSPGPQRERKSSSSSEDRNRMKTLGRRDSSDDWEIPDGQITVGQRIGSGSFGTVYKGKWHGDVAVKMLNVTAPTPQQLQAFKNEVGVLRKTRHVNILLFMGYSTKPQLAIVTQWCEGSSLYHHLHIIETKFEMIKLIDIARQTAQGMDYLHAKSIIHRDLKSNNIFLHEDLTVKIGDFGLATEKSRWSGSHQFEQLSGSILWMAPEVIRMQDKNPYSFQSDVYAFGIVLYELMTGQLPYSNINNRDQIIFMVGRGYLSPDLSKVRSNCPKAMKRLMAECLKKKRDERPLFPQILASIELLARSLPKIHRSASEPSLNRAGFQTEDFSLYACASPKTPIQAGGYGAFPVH
# assay overview: Inhibition of B-Raf V600E mutant (unknown origin) using fluorescein-MAP2K1 as substrate after 1 hr by electrophoretic assay
For each of the compounds below, state its log10 of IC50.
Reminder: these figures are log10 of reported IC50, in nM before transformation.

[[record]]
structure_smiles = "CCCS(=O)(=O)Nc1ccc(F)c(C(=O)Nc2cnc3[nH]ccc3c2)c1C"
tgt = "Serine/threonine-protein kinase B-raf (Homo sapiens, UniProt P15056, V600E)"
observed_value = 1.58

[[record]]
structure_smiles = "CCCS(=O)(=O)Nc1ccc(Cl)c(C(=O)Nc2cnc3[nH]cc(OC)c3c2)c1F"
tgt = "Serine/threonine-protein kinase B-raf (Homo sapiens, UniProt P15056, V600E)"
observed_value = 0.23

[[record]]
structure_smiles = "CCCS(=O)(=O)Nc1ccc(F)c(C(=O)Nc2cnc3[nH]cc(N(C)C)c3c2)c1F"
tgt = "Serine/threonine-protein kinase B-raf (Homo sapiens, UniProt P15056, V600E)"
observed_value = 0.91

[[record]]
structure_smiles = "O=c1c(O)c(-c2cc(O)c(O)c(O)c2)oc2cc(O)cc(O)c12"
tgt = "Serine/threonine-protein kinase B-raf (Homo sapiens, UniProt P15056, V600E)"
observed_value = 3.19

[[record]]
structure_smiles = "CCCS(=O)(=O)Nc1ccc(Cl)c(C(=O)Nc2cnc3[nH]ccc3c2)c1F"
tgt = "Serine/threonine-protein kinase B-raf (Homo sapiens, UniProt P15056, V600E)"
observed_value = 0.80

[[record]]
structure_smiles = "CCCS(=O)(=O)Nc1ccc(F)c(C(=O)Nc2cnc3[nH]cnc3c2)c1C"
tgt = "Serine/threonine-protein kinase B-raf (Homo sapiens, UniProt P15056, V600E)"
observed_value = 1.79

[[record]]
structure_smiles = "CCCS(=O)(=O)Nc1ccc(F)c(C(=O)Nc2cnc3[nH]cc(C)c3c2)c1F"
tgt = "Serine/threonine-protein kinase B-raf (Homo sapiens, UniProt P15056, V600E)"
observed_value = 1.08

[[record]]
structure_smiles = "CCCS(=O)(=O)Nc1ccc(F)c(C(=O)Nc2cnc3[nH]cc(OC)c3c2)c1F"
tgt = "Serine/threonine-protein kinase B-raf (Homo sapiens, UniProt P15056, V600E)"
observed_value = 0.68


Here are 2 compounds. What values of log10 of IC50 were reported for them?
1. CCCS(=O)(=O)Nc1ccc(F)c(C(=O)Nc2cnc3[nH]ccc3c2)c1F
2. O=c1c(O)c(-c2ccc(O)c(O)c2)oc2cc(O)cc(O)c12

// result
1.23
3.88

----------
For each of the compounds below, state its inhibition.
# System: Serine/threonine-protein kinase B-raf (Homo sapiens), P15056 [V600E]
# Sequence (P15056 whole entry V600E): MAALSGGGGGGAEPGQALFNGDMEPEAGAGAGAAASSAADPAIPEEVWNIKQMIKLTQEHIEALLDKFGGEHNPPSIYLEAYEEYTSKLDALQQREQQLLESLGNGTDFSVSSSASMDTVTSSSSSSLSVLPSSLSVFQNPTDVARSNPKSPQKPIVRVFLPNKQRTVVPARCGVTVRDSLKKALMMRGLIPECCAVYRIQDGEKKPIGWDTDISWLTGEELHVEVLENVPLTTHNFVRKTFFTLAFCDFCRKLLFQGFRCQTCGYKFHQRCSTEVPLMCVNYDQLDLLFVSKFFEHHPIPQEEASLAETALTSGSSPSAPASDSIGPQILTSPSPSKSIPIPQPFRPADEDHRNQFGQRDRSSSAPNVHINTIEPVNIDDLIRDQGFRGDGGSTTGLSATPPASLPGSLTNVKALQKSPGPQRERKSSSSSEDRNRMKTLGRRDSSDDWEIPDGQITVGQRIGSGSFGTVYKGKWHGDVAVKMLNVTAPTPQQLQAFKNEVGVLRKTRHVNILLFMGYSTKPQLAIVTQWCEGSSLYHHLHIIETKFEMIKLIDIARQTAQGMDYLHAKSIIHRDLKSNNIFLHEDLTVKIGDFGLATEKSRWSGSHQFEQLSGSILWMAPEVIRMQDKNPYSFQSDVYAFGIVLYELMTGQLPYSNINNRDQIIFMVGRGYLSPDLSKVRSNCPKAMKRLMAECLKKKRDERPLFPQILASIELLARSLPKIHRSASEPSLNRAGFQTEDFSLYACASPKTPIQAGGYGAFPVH
# assay overview: Inhibition of B-Raf V600E mutant (unknown origin) at 10 uM using fluorescein-MAP2K1 as substrate after 1 hr by electrophoretic assay relative to control

Here are 2 compounds. What values of inhibition were reported for them?
1. Nc1ncnc2c(C(=O)Nc3c(Cl)ccc(NS(=O)(=O)CCCF)c3F)csc12
2. CC(C)(C)c1nc(-c2cccc(NS(=O)(=O)c3cc(F)ccc3F)c2)c(-c2ccnc(N)n2)s1

// result
> 40%
> 40%
